- SYSTEM: Cx43 EL1 peptide extracellular loop 1 (EL1) (Mus musculus, UniProt P23242)
- Sequence (P23242 45-76): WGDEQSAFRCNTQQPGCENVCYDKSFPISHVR
- METHOD_DESCRIPTION: SPR

{"BINDER": "QPGCEN [P4 peptide (Cx43 mimetic)]", "Kd (µM)": 20}
